Biological target: Y312W-hKOR (Homo sapiens, UniProt P41145, Y312W)
Sequence (P41145 whole entry Y312W): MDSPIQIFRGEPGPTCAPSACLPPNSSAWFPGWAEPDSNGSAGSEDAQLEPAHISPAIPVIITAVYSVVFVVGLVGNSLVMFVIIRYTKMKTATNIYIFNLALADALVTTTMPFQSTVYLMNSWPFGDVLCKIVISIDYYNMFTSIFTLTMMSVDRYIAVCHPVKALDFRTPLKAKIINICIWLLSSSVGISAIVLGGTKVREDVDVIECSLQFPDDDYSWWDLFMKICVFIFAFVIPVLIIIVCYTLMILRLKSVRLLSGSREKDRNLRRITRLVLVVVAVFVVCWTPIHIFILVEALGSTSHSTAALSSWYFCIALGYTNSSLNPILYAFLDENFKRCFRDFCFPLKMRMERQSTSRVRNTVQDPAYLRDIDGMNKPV
Assay: cell-based
pEC50: −log10 of the molar value.
OBSERVATION TYPE: pEC50

INSERT INTO measurements (compound, observation_type, result_value) VALUES
  ('NCc1cccc(C(=O)N[C@@H]2CCC3C4Cc5ccc(O)c6c5[C@@]3(CCN4CC3CC3)C2O6)c1 (stereo partly shown)', 'pEC50', 9.80);

###

Target: mDOR (Mus musculus, UniProt P32300)
Sequence (P32300 whole entry): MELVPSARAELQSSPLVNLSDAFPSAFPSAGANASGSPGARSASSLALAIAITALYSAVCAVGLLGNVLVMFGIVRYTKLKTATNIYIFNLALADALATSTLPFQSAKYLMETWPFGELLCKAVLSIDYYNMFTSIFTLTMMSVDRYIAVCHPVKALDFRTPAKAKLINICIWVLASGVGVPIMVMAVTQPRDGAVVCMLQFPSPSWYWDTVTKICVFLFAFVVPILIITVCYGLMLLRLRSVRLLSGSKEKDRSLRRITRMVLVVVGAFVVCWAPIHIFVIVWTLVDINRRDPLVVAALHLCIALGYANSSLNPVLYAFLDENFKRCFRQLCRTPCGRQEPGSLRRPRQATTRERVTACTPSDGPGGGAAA
Assay: cell-based
Conditions: HEK-293T, read-out: Emax% G protein activation (BRET) mDOR
OBSERVATION TYPE: Emax (%)

INSERT INTO results (compound, test_system, result_value) VALUES
  ('O=C(N[C@@H]1CC[C@@]2(O)C3Cc4ccc(O)cc4[C@@]2(CCN3CC2CC2)C1)c1cccc(I)c1', 'mDOR (Mus musculus, UniProt P32300)', 105),
  ('NCc1cccc(C(=O)N[C@@H]2CCC3C4Cc5ccc(O)c6c5[C@@]3(CCN4CC3CC3)C2O6)c1 (stereo partly shown)', 'mDOR (Mus musculus, UniProt P32300)', 52),
  ('O=C(NC1CCC2(O)C3Cc4ccc(O)c5c4C2(CCN3CC2CC2)C1O5)c1cccc(I)c1 (stereo not shown)', 'mDOR (Mus musculus, UniProt P32300)', 108),
  ('O=C(NC1C=CC2C3Cc4ccc(O)c5c4C2(CCN3CC2CC2)C1O5)c1cccc(I)c1 (stereo not shown)', 'mDOR (Mus musculus, UniProt P32300)', 91),
  ('N=C(N)NCc1cccc(C(=O)N[C@@H]2CCC3C4Cc5ccc(O)c6c5[C@@]3(CCN4CC3CC3)C2O6)c1 (stereo partly shown)', 'mDOR (Mus musculus, UniProt P32300)', 58),
  ('CO[C@@]12CC[C@@H](NC(=O)c3cccc(I)c3)C3Oc4c(O)ccc5c4[C@@]31CCN(CC1CC1)C2C5 (stereo partly shown)', 'mDOR (Mus musculus, UniProt P32300)', 105),
  ('O=C(N[C@@H]1CCC2C3Cc4ccc(O)c5c4[C@@]2(CCN3CC2CC2)C1O5)c1cccc(I)c1 (stereo partly shown)', 'mDOR (Mus musculus, UniProt P32300)', 103);

###

Target: DOR (Homo sapiens, UniProt P41143)
Sequence (P41143 whole entry): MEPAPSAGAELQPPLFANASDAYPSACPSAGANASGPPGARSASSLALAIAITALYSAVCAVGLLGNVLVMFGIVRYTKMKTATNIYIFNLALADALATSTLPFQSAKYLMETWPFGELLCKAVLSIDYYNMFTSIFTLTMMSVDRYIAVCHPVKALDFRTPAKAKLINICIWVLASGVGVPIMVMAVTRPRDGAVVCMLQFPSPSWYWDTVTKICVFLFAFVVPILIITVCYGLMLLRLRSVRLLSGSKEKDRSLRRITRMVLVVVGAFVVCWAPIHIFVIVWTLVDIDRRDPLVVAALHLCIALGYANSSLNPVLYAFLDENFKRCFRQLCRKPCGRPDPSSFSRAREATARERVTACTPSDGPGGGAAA
Assay: cell-based
Settings: pEC50 cAMP inhibition hDOR, ± SEM
pEC50: −log10 of the molar value.
OBSERVATION TYPE: pEC50

INSERT INTO assay_data (compound, observation_type, result_value) VALUES
  ('O=C(NC1CCC2(O)C3Cc4ccc(O)c5c4C2(CCN3CC2CC2)C1O5)c1cccc(I)c1 (stereo not shown)', 'pEC50', 9.30);

###

Molecular target: KOR (Homo sapiens)
Sequence (P41145 whole entry): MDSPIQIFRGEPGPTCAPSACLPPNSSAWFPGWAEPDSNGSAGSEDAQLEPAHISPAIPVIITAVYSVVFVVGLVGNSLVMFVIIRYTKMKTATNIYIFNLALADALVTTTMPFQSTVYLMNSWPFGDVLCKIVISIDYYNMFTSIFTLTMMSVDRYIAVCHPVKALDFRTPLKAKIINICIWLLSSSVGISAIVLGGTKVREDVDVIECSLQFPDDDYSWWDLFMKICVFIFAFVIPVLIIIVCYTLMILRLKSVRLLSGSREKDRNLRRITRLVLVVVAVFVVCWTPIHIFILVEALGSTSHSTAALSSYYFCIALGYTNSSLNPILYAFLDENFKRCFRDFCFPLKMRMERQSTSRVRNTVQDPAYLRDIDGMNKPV
Details: transduction coefficient log(T/KA)
OBSERVATION TYPE: LogRA Tango hKOR

INSERT INTO assay_data (compound, result_value) VALUES
  ('NCc1ccc(C(=O)N[C@@H]2CC[C@H]3[C@H]4Cc5ccc(O)c6c5[C@@]3(CCN4CC3CC3)[C@H]2O6)cc1', 8.735),
  ('O=C(N[C@@H]1CC[C@@]2(O)C3Cc4ccc(O)cc4[C@@]2(CCN3CC2CC2)C1)c1cccc(I)c1', 8.51),
  ('O=C(N[C@@H]1CCC2C3Cc4ccc(O)c5c4[C@@]2(CCN3CC2CC2)C1O5)c1cccc(I)c1 (stereo partly drawn)', 10.30);
